Could you please report measured Long-term stability, 3 month, -20°C Accuracy [%] for the items listed next?
measurement-notes: Long-term stability in spiked pooled human plasma
assay-conditions: validation standard 2xLLOV

Example entries begin here.
| molecule | reported |
| --- | --- |
| CC(C)(C)c1nc(-c2cccc(NS(=O)(=O)c3c(F)cccc3F)c2F)c(-c2ccnc(N)n2)s1 [Dabrafenib] | 96.6% |
| COc1cc2nccc(Oc3ccc(NC(=O)Nc4cc(C)on4)c(Cl)c3)c2cc1OC [Tivozanib] | 96.9% |
| C[C@@H](Oc1cc(-c2cnn(C3CCNCC3)c2)cnc1N)c1c(Cl)ccc(F)c1Cl [Crizotinib] | 87.5% |

Go through the items and report each one's Long-term stability, 3 month, -20°C Accuracy [%].
1. C[C@]12CC[C@H](O)CC1=CC[C@@H]1[C@@H]2CC[C@]2(C)C(c3cccnc3)=CC[C@@H]12 [Abiraterone]
2. COc1cc2nccc(Oc3ccc(NC(=O)NC4CC4)c(Cl)c3)c2cc1C(N)=O [Lenvatinib]
3. CCN1CCN(Cc2ccc(Nc3ncc(F)c(-c4cc(F)c5nc(C)n(C(C)C)c5c4)n3)nc2)CC1 [Abemaciclib]

Result:
1: 97.2%; 2: 103.0%; 3: 98.8%

----------
measurement-notes: Short-term stability in spiked pooled human plasma (bench-top, 4 °C, 56 °C)
assay-conditions: validation standard LLOV
result-type: Short-time stability (1h, 56°C) Accuracy [%]

| molecule | reported |
| --- | --- |
| CNC(=O)c1cc(Oc2ccc(NC(=O)Nc3ccc(Cl)c(C(F)(F)F)c3)c(F)c2)ccn1 [Regorafenib] | 32.3% |

Go through the items and report each one's Short-time stability (1h, 56°C) Accuracy [%].
1. CN(C)C(=O)c1cc2cnc(Nc3ccc(N4CCNCC4)cn3)nc2n1C1CCCC1 [Ribociclib]
2. C#Cc1cccc(Nc2ncnc3cc(OCCOC)c(OCCOC)cc23)c1 [Erlotinib]

Result:
["30.6%", "69.2%"]

Go through the items and report each one's Short-time stability (1h, 56°C) Accuracy [%].
1. COc1cc2nccc(Oc3ccc(NC(=O)C4(C(=O)Nc5ccc(F)cc5)CC4)cc3)c2cc1OC [Cabozantinib]
2. COc1cc2ncnc(Nc3ccc(F)c(Cl)c3)c2cc1OCCCN1CCOCC1 [Gefitinib]
3. C[C@]12CC[C@H](O)CC1=CC[C@@H]1[C@@H]2CC[C@]2(C)C(c3cccnc3)=CC[C@@H]12 [Abiraterone]
4. COc1cc2ncnc(Nc3ccc(F)c(Cl)c3)c2cc1NC(=O)/C=C/CN1CCCCC1 [Dacomitinib]

Result:
1: 30.2%; 2: 33.3%; 3: 49.9%; 4: 10.3%

Ask: Given the molecule O=C(c1ccc(F)c(F)c1Nc1ccc(I)cc1F)N1CC(O)([C@@H]2CCCCN2)C1 [Cobimetinib] , what is its reported Short-time stability (1h, 56°C) Accuracy [%]?
Result: 42.7%

----------
measurement-notes: Plasma concentrations in patients on oral antitumor therapy (LC-MS)
Type: in vivo, human
assay-conditions: patient plasma concentrations
result-type: Interpatient Coefficient of Variation [%]
Note: state the figure and append the unit.

Example entries begin here.
| molecule | reported |
| --- | --- |
| COc1cc2nccc(Oc3ccc(NC(=O)C4(C(=O)Nc5ccc(F)cc5)CC4)cc3)c2cc1OC [Cabozantinib] | 58.5% |
| C[C@]12CC[C@H](O)CC1=CC[C@@H]1[C@@H]2CC[C@]2(C)C(c3cccnc3)=CC[C@@H]12 [Abiraterone] | 187.3% |
| COc1cc2nccc(Oc3ccc(NC(=O)Nc4cc(C)on4)c(Cl)c3)c2cc1OC [Tivozanib] | 53.8% |
| C=CC(=O)N1CCC[C@@H](n2nc(-c3ccc(Oc4ccccc4)cc3)c3c(N)ncnc32)C1 [Ibrutinib] | 110.0% |
| Cc1ccc(NC(=O)c2ccc(CN3CCN(C)CC3)cc2)cc1Nc1nccc(-c2cccnc2)n1 [Imatinib] | 29.4% |

Okay, now this molecule:
Ask: Given the molecule O=C(c1cc(Cc2n[nH]c(=O)c3ccccc23)ccc1F)N1CCN(C(=O)C2CC2)CC1 [Olaparib] , what is its reported Interpatient Coefficient of Variation [%]?
Result: 51.6%

----------
measurement-notes: Short-term stability in spiked pooled human plasma (bench-top, 4 °C, 56 °C)
assay-conditions: validation standard MOV
result-type: Short-time stability (24h, 4°C, without daylight) Accuracy [%] (%)
Give bare numbers, in %.

Example entries begin here.
| molecule | reported |
| --- | --- |
| O=C(c1cc(Cc2n[nH]c(=O)c3ccccc23)ccc1F)N1CCN(C(=O)C2CC2)CC1 [Olaparib] | 98.6 |
| Cc1cn(-c2cc(NC(=O)c3ccc(C)c(Nc4nccc(-c5cccnc5)n4)c3)cc(C(F)(F)F)c2)cn1 [Nilotinib] | 100.3 |
| COc1cc2nccc(Oc3ccc(NC(=O)NC4CC4)c(Cl)c3)c2cc1C(N)=O [Lenvatinib] | 95.9 |
| O=c1[nH]c(=O)n([C@H]2C[C@H](O)[C@@H](CO)O2)cc1C(F)(F)F [Trifluridine] | 96.3 |
| CNC(=O)c1ccc(N2C(=S)N(c3ccc(C#N)c(C(F)(F)F)c3)C(=O)C2(C)C)cc1F [Enzalutamide] | 98.9 |

Go through the items and report each one's Short-time stability (24h, 4°C, without daylight) Accuracy [%].
1. CC(=O)Nc1cccc(-n2c(=O)n(C3CC3)c(=O)c3c(Nc4ccc(I)cc4F)n(C)c(=O)c(C)c32)c1 [Trametinib]
2. CCN(CC)CCNC(=O)c1c(C)[nH]c(/C=C2\C(=O)Nc3ccc(F)cc32)c1C [Sunitinib]

Result:
115.0
101.2

Ask: Given the molecule CNC(=O)c1ccc(N2C(=S)N(c3cnc(C#N)c(C(F)(F)F)c3)C(=O)C23CCC3)cc1F [Apalutamide] , what is its reported Short-time stability (24h, 4°C, without daylight) Accuracy [%]?
Result: 84.3

----------
measurement-notes: Long-term stability in spiked pooled human plasma
assay-conditions: validation standard ULOV
Could you please report measured Long-term stability, 1 month, -80°C Accuracy [%] for the items listed next?
Note: state the figure and append the unit.

Example entries begin here.
| compound | reported |
| --- | --- |
| O=C(c1cc(Cc2n[nH]c(=O)c3ccccc23)ccc1F)N1CCN(C(=O)C2CC2)CC1 [Olaparib] | 98.1% |
| CNCc1ccc(-c2[nH]c3cc(F)cc4c3c2CCNC4=O)cc1 [Rucaparib] | 94.8% |
| CNC(=O)c1cc(Oc2ccc(NC(=O)Nc3ccc(Cl)c(C(F)(F)F)c3)cc2)ccn1 [Sorafenib] | 103.5% |

Go through the items and report each one's Long-term stability, 1 month, -80°C Accuracy [%].
1. O=C1CCC(N2C(=O)c3ccccc3C2=O)C(=O)N1 (stereo not shown) [Thalidomide]
2. C#Cc1cccc(Nc2ncnc3cc(OCCOC)c(OCCOC)cc23)c1 [Erlotinib]
3. CCOc1cc2ncc(C#N)c(Nc3ccc(OCc4ccccn4)c(Cl)c3)c2cc1NC(=O)/C=C/CN(C)C [Neratinib]
4. C[C@@H](Oc1cc(-c2cnn(C3CCNCC3)c2)cnc1N)c1c(Cl)ccc(F)c1Cl [Crizotinib]
5. CNC(=O)c1ccc(N2C(=S)N(c3ccc(C#N)c(C(F)(F)F)c3)C(=O)C2(C)C)cc1F [Enzalutamide]
6. CS(=O)(=O)c1ccc(C(=O)Nc2ccc(Cl)c(-c3ccccn3)c2)c(Cl)c1 [Vismodegib]
7. COC(=O)N[C@@H](C)CNc1nccc(-c2cn(C(C)C)nc2-c2cc(Cl)cc(NS(C)(=O)=O)c2F)n1 [Encorafenib]
8. Cc1[nH]c2ccccc2c1CCNCc1ccc(/C=C/C(=O)NO)cc1 [Panobinostat]

Result:
66.3%
97.8%
78.2%
80.1%
86.1%
87.8%
95.7%
89.9%

Go through the items and report each one's Long-term stability, 1 month, -80°C Accuracy [%].
1. N#CC[C@H](C1CCCC1)n1cc(-c2ncnc3[nH]ccc23)cn1 [Ruxolitinib]
2. COc1cc2nccc(Oc3ccc(NC(=O)NC4CC4)c(Cl)c3)c2cc1C(N)=O [Lenvatinib]
3. O=C(Nc1cnn2ccc(N3CCC[C@@H]3c3cc(F)ccc3F)nc12)N1CC[C@H](O)C1 [Larotrectinib]
4. COc1cc2nccc(Oc3ccc(NC(=O)Nc4cc(C)on4)c(Cl)c3)c2cc1OC [Tivozanib]
5. Cc1nc(Nc2ncc(C(=O)Nc3c(C)cccc3Cl)s2)cc(N2CCN(CCO)CC2)n1 [Dasatinib]
6. C[C@]12CC[C@H](O)CC1=CC[C@@H]1[C@@H]2CC[C@]2(C)C(c3cccnc3)=CC[C@@H]12 [Abiraterone]

Result:
1: 91.6%; 2: 94.7%; 3: 95.5%; 4: 92.8%; 5: 93.4%; 6: 93.2%

Go through the items and report each one's Long-term stability, 1 month, -80°C Accuracy [%].
1. CC(=O)Nc1cccc(-n2c(=O)n(C3CC3)c(=O)c3c(Nc4ccc(I)cc4F)n(C)c(=O)c(C)c32)c1 [Trametinib]
2. CNC(=O)c1cc(Oc2ccc(NC(=O)Nc3ccc(Cl)c(C(F)(F)F)c3)c(F)c2)ccn1 [Regorafenib]
3. CS(=O)(=O)CCNCc1ccc(-c2ccc3ncnc(Nc4ccc(OCc5cccc(F)c5)c(Cl)c4)c3c2)o1 [Lapatinib]
4. CCN1CCN(Cc2ccc(Nc3ncc(F)c(-c4cc(F)c5nc(C)n(C(C)C)c5c4)n3)nc2)CC1 [Abemaciclib]
5. COC(=O)c1ccc2c(c1)NC(=O)/C2=C(\Nc1ccc(N(C)C(=O)CN2CCN(C)CC2)cc1)c1ccccc1 [Nintedanib]

Result:
1. 99.6%
2. 103.8%
3. 94.5%
4. 97.8%
5. 87.4%
